The values you see were collected from PubChem BioAssay (NCI).

Assay: NCI Yeast Anticancer Drug Screen. Data for the mlh1 rad18 strain (AID 175)
Conditions: S. cerevisiae mlh1 rad18 strain growth inhibition; at 50.0 µM (retest, dose inferred, filed as 5.0); stronger effect = higher value
Compounds without any hit were thinned out: in the full panel of roughly 79,000, 15% have a hit.
Assign class by growth inhibition: not lower than 10% means criterion met; lower than 10% means criterion not met.

Solved cases below.
O=C(c1ccccc1)C1OC1c1ccccc1Cl (stereo unspecified) = criterion met
Cc1nc(Nc2c(C)cccc2C)c2c(C)c[nH]c2n1 = criterion not met
CCC1OC(OC)C=CC1=O (stereo unspecified) = criterion not met
COc1ccc(C2=C(Cl)C(=O)N(c3ccc(OC)cc3OC)C(=O)C2(Cl)Cl)cc1 = criterion not met
C/C=C/CC(C/C=C/C)C1CC[N-]CC1.C/C=C/CC(C/C=C/C)C1CC[N-]CC1.[Cl][Pt+2]([Cl])([Cl])[Cl] = criterion met
Clc1ccc2c(NCCCCCCNc3ccnc4cc(Cl)ccc34)ccnc2c1 = criterion met

Prompt: Could you please find out whether CNC(=O)c1ccc(OC)cc1C1(O)c2ccccc2CCc2ccccc21 has growth inhibition that meets 10% or exceeds it?
Response: criterion met

Prompt: Now give it for CSc1nc(SC)c2cnn(Cc3ccccc3)c2n1 too.
Response: criterion not met

Prompt: Now give it for COc1ccc2c(C)cc(N/N=C/c3ccc(OC)c4ccccc34)nc2c1 too.
Response: criterion met

Prompt: Now give it for N#Cc1cc2cccn2c2c1cnn2-c1ccccc1 too.
Response: criterion met

Prompt: Now give it for O=[N+]([O-])c1ccc(N/N=C/COCCO)c([N+](=O)[O-])c1 too.
Response: criterion not met

---

Please provide measured growth inhibition for the entries that follow.
Test: NCI Yeast Anticancer Drug Screen. Data for the sgs1 mgt1 strain (AID 161);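 further: 0% = growth of cultures given vehicle only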
Conditions: S. cerevisiae sgs1 mgt1 strain, at 50.0 µM (retest, dose inferred, filed as 5.0), stronger effect = higher value
The panel holds about 79,000 compounds, 15% with a hit somewhere; the sample as a whole holds those more often.
Answers are plain numbers, in %.

Consider the reported growth inhibition for these compounds:
CCOC(=O)C(C)(c1c(C)[nH]c2ccccc12)c1c(C)[nH]c2ccccc12 = 87
CC(=O)OCC1OC(OC(C)=O)C(On2nnc3c(-c4ccccc4)c(C)nn32)C(OC(C)=O)C1OC(C)=O (stereo not drawn) = 76
CN(C=O)c1ccc2c(c1)Cc1ccccc1-2 = 82

Would you be so kind as to report growth inhibition for each listed record?
1. CCCCCCCCCCCCCCCCCC(=O)OCC(COC(=O)CCCN)OC(=O)CCCN (stereo not drawn)
2. CCCCCCCCCCCCCCCCCCn1[se]c2ccccc2c1=O
3. CCC/C(=N\NC(=S)N1CCCCCC1)c1ccccn1
4. O=C(NCCCCCNC(=O)C12CC3CC(CC(C3)C1)C2)C12CC3CC(CC(C3)C1)C2

Response:
1. 99
2. 17
3. 97
4. 7

Prompt: Dear colleague, I am looking for the recorded growth inhibition of the following compound: CN(C)CCCNc1ccc(O)c2sc3ccccc3c(=O)c12
Response: 20

---

Experiment: NCI Yeast Anticancer Drug Screen. Data for the mec2-1 strain (AID 157)
Details: S. cerevisiae mec2-1 strain, at 50.0 µM (retest, dose inferred, filed as 5.0), stronger effect = higher value
The panel holds about 79,000 compounds, 15% with a hit somewhere; the sample as a whole holds those more often.
reported_metric: growth inhibition (%)
Numbers only, in %.

Would you be so kind as to report growth inhibition for each listed record?
1. Cc1c2ccncc2cc2c3ccccc3n(C)c12
2. CCCCCC/C=C\CCCCCCCCCC1=C(CN2CCN(C)CC2)C(=O)C=C(OC)C1=O
3. Clc1ccc(CN2CCCN(Cc3ccc(Cl)cc3)C2C2CCC=CO2)cc1 (stereo not given)

Response:
1: 97; 2: 98; 3: 17

Would you be so kind as to report growth inhibition for each listed record?
1. O=C1/C(=C/c2ccccc2)CCCc2ccccc21
2. O=C=Nc1ccccc1-c1ccc([N+](=O)[O-])cc1Cl

Response:
1: 62; 2: 62

---

Assay: NCI Yeast Anticancer Drug Screen. Data for the cln2 rad14 strain (AID 165);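 further: 0% = growth equal to vehicle treated cultures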
Conditions: S. cerevisiae cln2 rad14 strain, at 50.0 µM (retest, dose inferred, filed as 5.0), stronger effect = higher value
Compounds without any hit were thinned out: in the full panel of roughly 79,000, 15% have a hit.
reported_metric: growth inhibition (%)
Numbers only, in %.

Consider the reported growth inhibition for these compounds:
CN(Cc1ccccc1)c1nc(=[N+](C)C)ss1 = 15
O=C(Nc1ccc(F)cc1)ON=C1CCCCC1 = 99
N#C/C(=C\c1c(Cl)cccc1Cl)c1nc2ccccc2[nH]1 = 98

Would you be so kind as to report growth inhibition for each listed record?
1. C=C(CCC(C)C1CCC2(C)C3=C(CC(O)C12C)C1(C)CCC(O)C(C)(C)C1CC3)C(C)C(=O)O (stereo not drawn)
2. CCCCNCCCCCCCCCCCl
3. CCCCCCCCSCc1ccc(N)cc1
4. COc1ccc(C2COc3cc(O)c(O)cc3C2)cc1 (stereo not drawn)
5. C[n+]1c(-c2cccc(OCCOCCOc3cccc(-c4c5cc(N)ccc5c5ccc(N)cc5[n+]4C)c3)c2)c2cc(N)ccc2c2ccc(N)cc21

Response:
[96, 98, 98, 99, 59]

Would you be so kind as to report growth inhibition for each listed record?
1. O=C(O)c1ccc2c(c1)CC1(C2)Cc2cc3c(cc2C1=O)CCC3 (stereo not drawn)
2. Nc1nccc(NCCCCCCNc2ccnc(N)n2)n1
3. Clc1ccc(/C=C\c2ccncc2)cc1

Response:
1: 21; 2: 21; 3: 7

Would you be so kind as to report growth inhibition for each listed record?
1. O=c1[nH]c2ccccc2nc1CBr
2. CC(C)(C)c1ccc(CN2CCN(C(c3ccccc3)c3ccc(Cl)cc3)CC2)cc1 (stereo not drawn)

Response:
1: 95; 2: 21

---

Please provide measured growth inhibition for the entries that follow.
Assay: NCI Yeast Anticancer Drug Screen. Data for the bub3 strain (AID 167)
Settings: S. cerevisiae bub3 mutant strain, at 50.0 µM (retest, dose inferred, filed as 5.0), stronger effect = higher value
This is part of a sample that, as a whole, favours compounds with a hit. Of some 79,000 tested, about 15% had one in any assay.
Answers are plain numbers, in %.

Cc1c[n+](=O)c2ccccc2n1[O-] = -11
CCN(CC)Cc1cc(N=Nc2c(O)ccc3c(N=Nc4ccc(O)c(CN(CC)CC)c4)c(O)ccc23)ccc1O = 61
CC1(COc2ccccc2OCC2(C)CO2)CO1 (stereo unspecified) = -3

Would you be so kind as to report growth inhibition for each listed record?
1. S=C(N/N=C/c1ccccn1)Nc1ccccn1
2. O=C(O)/C=C/c1ccc([N+](=O)[O-])o1
3. COC(=O)c1ccccc1C#Cc1ccccc1C(=O)OC
4. OCCCNc1nc2ccc(Cl)cc2c2ccccc12
5. O=C(NCCCCCCNC(=O)n1cc(F)c(=O)[nH]c1=O)NCCCOCCOCCOCCOCCOCCOCCOCCOCCOCCOCCOCCOCCOCCOCCOCCOCCOCCOCCOCCOCCOCCCNC(=O)C(O)C(O)C(O)C(O)CO (stereo unspecified)
6. Nc1nc2nn(-c3ccc(C(=O)O)cc3)nc2c(=O)[nH]1
7. O=C(CCl)Oc1c(Br)cc(-c2ccccc2)cc1Br
8. COC(=O)/C=C1/Nc2ccc(Cl)cc2C(=O)NC1=O

Response:
98
42
4
-4
34
-3
98
80

---

Experiment: NCI Yeast Anticancer Drug Screen. Data for the mec2-1 strain (AID 157)
Details: S. cerevisiae mec2-1 strain, at 50.0 µM (retest, dose inferred, filed as 5.0)
Description: Growth inhibition of yeast strains with defined genetic alterations is measured as a screen for potential anti-cancer activity. Selected strains with alterations in DNA damage repair or cell cycle control were exposed to compounds and growth inhibition was measured relative to vehicle treated controls. The strain used in this assay is mec2-1
About 79,000 compounds went through this panel and 15% of them were active in at least one assay; those are over-represented in the sample as a whole. Active and inactive are the calls of the source. No stated cut-off is given here; in the data, active means growth inhibition above about 70%; inactive means the rest.
Use one of these outcomes when replying: 1.0 = active, 0.0 = inactive

Solved cases below.
CCN(CC)CCOC(=O)CCN1CC2CCC(CC2)C1 = 0.0
CCCCCCC(O)C(CO)CCCCC (configuration not stated) = 1.0
COC(=O)c1cc(OC)c(OC)c(OC)c1 = 0.0
C[N+](C)(C)c1nc(N)nc2c1ncn2C1OC(CO)C(O)C1O (configuration not stated) = 0.0
CCN(CC)CCOc1ccc(/C=C/c2ccccc2)cc1 = 1.0
COc1cc(OC)c(SSCCCCS(=O)O)c(OC)c1 = 0.0

Prompt: What classification did CCCCCCCN=C(N)c1ccc(C(=O)OCc2ccccc2)cc1 end up with in this test?
Response: 1.0

Prompt: Now give it for CCCCCCCCCCCC1C(C#N)C(=O)NC(=O)C1C#N (configuration not stated) too.
Response: 1.0

Prompt: Now give it for CNC(Cc1ccccc1)c1ccc(OC)c2ccccc12 (configuration not stated) too.
Response: 0.0

Prompt: Now give it for Cn1c(N)c(N=Nc2ccc(S(N)(=O)=O)cc2)c(=O)n(C)c1=O too.
Response: 0.0

Prompt: Now give it for CCCC(=O)NC1=C(Cl)C(=O)c2ccccc2C1=O too.
Response: 1.0
